Test: Dissolution of DMPC in HCl aqueous solution and nanoparticle formation by stirring
Type: physicochemical
Conditions: 137 mM HCl aqueous solution; read-out: DMPC dissolved into HCl aqueous solution (solubility)
Description: The present invention is partly based on the discovery that phosphatidylcholine nanoparticles can be formed in an aqueous solution free of an organic solvent by high energy treating the mixture of water insoluble phosphatidylcholine and an aqueous solution having a pH from 1 to 4. […]
measurement-label: solubility

query: Report solubility, nothing else, for this molecule: "CCCCCCCCCCCCCC(=O)OC[C@H](COP(=O)([O-])OCC[N+](C)(C)C)OC(=O)CCCCCCCCCCCCC"
result: ≤ 10000 µg/mL

Source of measurements: patent US12171870B2
